test system: MOLT-4 leukemia; assay: NCI-60 one-dose screen, 48 h; details: 10 µM unless noted
Compounds without any hit were thinned out: in the full panel of roughly 83,000, 20% have a hit. Calls of active or inactive are those of the source. How the source made its calls: active means growth percent below 10; inactive means the rest.
Response enum: active, inactive

Look over these answered cases.
1. Nc1ncnc(Nc2ccccc2)n1	inactive
2. COc1ccc(C(=O)/C(=N/Nc2ccccc2)c2ccc(OC)cc2)cc1	inactive
3. CC(C)N1CC(=O)N2CSCC2C1=O (centres undefined)	inactive
4. CCOP(=O)(OCC)/C(=C\N1C(=O)CC(=O)NC1=S)C(=O)OC	inactive
5. C=C1CC2(OC1=O)C(=O)N(C)c1ccc(I)cc12 (centres undefined)	active

Returns: the outcome recorded for C=CCC(O)C=C (centres undefined) in this assay. inactive

# fetch the recorded call for CCCC(=O)CC(=O)c1ccccc1 here inactive

Recorded test outcome, item O=C(O)C1CSC(c2ccccc2)N1 (centres undefined) inactive

Give the logged outcome of this assay for the following compound: CC1CC2C3CCC4=CC(=O)CCC4(C)C3CCC2(C)C1(O)C(=O)CO (centres undefined) inactive

---

Please go through the items and note down their growth.
system: SF-295 CNS; assay: NCI-60 one-dose screen, 48 h (100 = growth as untreated, 0 = no growth, -100 = all killed); details: 10 µM unless noted
The panel holds about 83,000 compounds, 20% with a hit somewhere; the sample as a whole holds those more often.
Answers are plain numbers, in %.

Known results for compounds:
1. CC(=O)C1C(=O)C(=O)N(c2cccc([N+](=O)[O-])c2)C1=O (centres undefined)	107
2. O=C(NCc1ccccc1)/C(=C/c1ccccc1)NC(=O)c1ccccc1	106
3. Nc1cc(F)ccc1[N+](=O)[O-]	108

Could you report growth for every entry in the following list?
1. NNc1ncnc2c1ncn2C1OC(CO)C(O)C1O (centres undefined)
2. COC1OC(COC(C)=O)C(OC(C)=O)C(OC(C)=O)C1OC(C)=O (centres undefined)
3. COc1ccc(/C=N/NC(=O)COCC(=O)N/N=C/c2ccc(OC)cc2)cc1
4. Cc1c(-c2ccc(C3CCCCC3)cc2)nc2ccc(F)cc2c1C(=O)O
5. NNC(=O)c1ccccc1N
6. O=C(O)c1ccc(OCc2ccccc2)cc1

38.7
90.1
97.1
2.98
110
96.2

---

tested on: SK-MEL-2 melanoma; experiment: NCI-60 one-dose screen, 48 h; conditions: 10 µM unless noted
This is part of a sample that, as a whole, favours compounds with a hit. Of some 83,000 tested, about 20% had one in any assay. Activity calls are given as the source filed them. How the source made its calls: active means growth percent below 10; inactive means the rest.
Tick one outcome: yes for active, no for inactive

1. CCCCCCCCCCC(=O)CCCCCCCCCC	no
2. O=c1nc(Nc2cccc(Cl)c2)oc2cc(Cl)oc(=O)c12	yes

Status in this test for NNC(=O)N/N=C1\C(=O)N(c2nccs2)C(=O)C(=O)C1c1nc2ccccc2s1 (stereo unspecified) ? no

Could you please tell me the result logged for NC(CSSCC(N)C(=O)O)C(=O)O (stereo unspecified) in this assay? yes

Look up the recorded call for N#C/C(=C\NC(=S)N=Nc1c(O)[nH]c2ccccc12)c1nc2ccccc2s1 in this test. no

Name the outcome recorded for COc1cccc(C(=O)NNC(=O)c2cccc3ccccc23)c1 in the assay. no

Each compound tested received a call. Report the one for O=C1CSc2ccccc2N1 . no

// outcome(item) with item = C=C1C(=O)C2CCN1CC2 no

Name the outcome recorded for CCOc1ccc(NC(=S)N2CCC(CCCC3CCN(C(=S)Nc4ccc(OCC)cc4)CC3)CC2)cc1 in the assay. no

Query: recorded result category for Clc1ccc(C(SCc2ccccc2)SCc2ccccc2)cc1 in this test no

Tell me the recorded outcome of this test for NNc1ncccn1 . no

Lab log entry: CC(C)(N)CO[C@H]1C[C@H]2CC[C@@]1(C)C2(C)C — outcome as called in the assay? no

Identify the outcome logged in this assay for the compound shown: CSCCC(NC(=O)C(Cl)Cl)C(=O)O (stereo unspecified) no

Kindly provide the recorded test outcome for the following compound: CC(C)N(C(=O)c1ccccc1)C(C)C no

Any idea what this test logged for CC(C)(C)CC1(C)NC(=O)NC1=O (stereo unspecified) ? no
